Listed here are compounds together with their documented Two-photon absorption cross-sectional area.
Experiment: Two-photon absorption cross-sectional area, Z scan method, Examples B
Format: physicochemical
Conditions: tetrahydrofuran solution, femtosecond laser, 780 nm to 960 nm (710 nm to 990 nm)
Response body: numeric value in GM, unit text excluded.

Example entries begin here.
CCC1=C(C)c2nc1c(Br)c1[nH]c(c(C)c1CC)c(Br)c1nc(c(-c3ccc(N(c4ccccc4)c4ccc(-c5c6nc(c(-c7ccccc7C(F)(F)F)c7[nH]c(c(Br)c8nc(c(Br)c9[nH]c5c(CC)c9C)C(C)=C8CC)c(CC)c7C)C(C)=C6CC)cc4)cc3)c3[nH]c(c(C)c3CC)c2-c2ccccc2C(F)(F)F)C(CC)=C1C | 840
CCCCCCc1ccc(N(c2ccc(-c3c4nc(c(-c5c(C)cc(C)cc5C)c5[nH]c(cc6nc(c(-c7c(C)cc(C)cc7C)c7[nH]c3c(CC)c7C)C(C)=C6CC)c(CC)c5C)C(C)=C4CC)cc2)c2ccc(-c3c4nc(c(-c5c(C)cc(C)cc5C)c5[nH]c(cc6nc(c(-c7c(C)cc(C)cc7C)c7[nH]c3c(CC)c7C)C(C)=C6CC)c(CC)c5C)C(C)=C4CC)cc2)cc1 | 860

We now examine a further compound.
The compound `CCCCCCC1(CCCCCC)c2cc(-c3c4nc(c(-c5cc(OC)c(OC)c(OC)c5)c5ccc(cc6nc(c(-c7cc(OC)c(OC)c(OC)c7)c7ccc3[nH]7)C=C6)[nH]5)C=C4)ccc2-c2ccc(-c3c4nc(c(-c5cc(OC)c(OC)c(OC)c5)c5ccc([nH]5)c(/C=C/c5ccc(N(c6ccccc6)c6ccccc6)cc5)c5nc(c(-c6cc(OC)c(OC)c(OC)c6)c6ccc3[nH]6)C=C5)C=C4)cc21` showed Two-photon absorption cross-sectional area equal to 990

###

Two-photon absorption cross-sectional area listing for selected molecules.
Experiment: Two-photon absorption cross-sectional area, Z scan method, Examples B
Type: physicochemical
Conditions: tetrahydrofuran solution, femtosecond laser, 780 nm to 960 nm (710 nm to 990 nm)
Use GM as the unit, but write only the number.

CCCCCCc1ccc(N(c2ccc(C3=C4N=C(C(C)=C4CC)C(c4c(C)cc(C)cc4C)=c4c(C)c(CC)c5[n]4[Pd][n]4c(c(C)c(CC)c43)C(c3c(C)cc(C)cc3C)=C3N=C(C=5)C(CC)=C3C)cc2)c2ccc(C3=c4c(CC)c(C)c5[n]4[Pd][n]4c(c(CC)c(C)c4C(c4c(C)cc(C)cc4C)=C4N=C3C(CC)=C4C)C=C3N=C(C(C)=C3CC)C=5c3c(C)cc(C)cc3C)cc2)cc1 | 890

Record COc1ccc(-c2cc(C3=C(c4cc(-c5ccc(OC)cc5)sc4OC)C(F)(F)C(F)(F)C3(F)F)c(OC)s2)cc1 [(74), reference compound] . Reported Two-photon absorption cross-sectional area: 15

Lab note: measured Two-photon absorption cross-sectional area of `CCCCCCC1(CCCCCC)c2cc(C3=C4C=CC(=N4)C(c4cc(OC)c(OC)c(OC)c4)=c4ccc5[n]4[Cu][n]4c(ccc43)C(c3cc(OC)c(OC)c(OC)c3)=C3C=CC(=N3)C=5/C=C/c3ccc(N(c4ccccc4)c4ccccc4)cc3)ccc2-c2ccc(C3=c4ccc5[n]4[Cu][n]4c(ccc4C(c4cc(OC)c(OC)c(OC)c4)=C4C=CC3=N4)C=C3C=CC(=N3)C=5c3cc(OC)c(OC)c(OC)c3)cc21` was 920

The molecule `CCC1=C(C)C2=NC1=Cc1c(CC)c(C)c3[n]1[Ni][n]1c(c(C)c(CC)c1=C(c1ccc(N(c4ccccc4)c4ccc(C5=C6N=C(C(C)=C6CC)C(c6ccncc6)=c6c(C)c(CC)c7[n]6[Ni][n]6c(c(C)c(CC)c65)C(c5ccncc5)=C5N=C(C(CC)=C5C)C=7/C=C/c5ccc(N(c6ccccc6)c6ccccc6)cc5)cc4)cc1)C1=NC(=C3c3ccncc3)C(C)=C1CC)=C2c1ccncc1` showed Two-photon absorption cross-sectional area equal to 900

###

Test: Two-photon absorption cross-sectional area, Z scan method, Examples B
Assay type: physicochemical
Conditions: tetrahydrofuran solution, femtosecond laser, 780 nm to 960 nm (710 nm to 990 nm)
Experimental endpoint: Two-photon absorption cross-sectional area

CCCCC(CC)COc1ccc(N(c2ccc(C3=C4N=C(C(C)=C4CC)C(c4ccccc4C(=O)OC)=c4c(C)c(CC)c5[n]4[Zn][n]4c(c(C)c(CC)c43)C(c3ccccc3C(=O)OC)=C3N=C(C=5)C(CC)=C3C)cc2)c2ccc(C3=c4c(CC)c(C)c5[n]4[Zn][n]4c(c(CC)c(C)c4C(c4ccccc4C(=O)OC)=C4N=C3C(CC)=C4C)C=C3N=C(C(C)=C3CC)C=5c3ccccc3C(=O)OC)cc2)cc1 (stereo not drawn) | 1,010 GM
CCCCCCC1(CCCCCC)c2cc(C3=C4C=CC(=N4)C(c4cc(OC)c(OC)c(OC)c4)=c4ccc5[n]4[Zn][n]4c(ccc43)C(c3cc(OC)c(OC)c(OC)c3)=C3C=CC(=N3)C=5/C=C/c3ccc(N(c4ccccc4)c4ccccc4)cc3)ccc2-c2ccc(C3=c4ccc5[n]4[Zn][n]4c(ccc4C(c4cc(OC)c(OC)c(OC)c4)=C4C=CC3=N4)C=C3C=CC(=N3)C=5c3cc(OC)c(OC)c(OC)c3)cc21 | 1,200 GM
CC(C)(C)c1c2nc(c(C(C)(C)C)c3ccc([nH]3)c(C(C)(C)C)c3nc(c(C(C)(C)C)c4ccc1[nH]4)C=C3)C=C2 [(73), reference compound] | ≈0 GM
